What inhibition at 10 µM was measured for each of the following?
Target: LTD4 receptor (Cavia porcellus)
Construct: guinea pig pulmomembranous protein; from tissue; host or cells: guinea pig lung membranes
Experiment: LTD4 receptor binding inhibition test ([^3 H]leukotriene D4, guinea pig pulmomembranous protein)
Conditions: b: 10 μM; read-out: LTD4 receptor (%), inhibition rate
Answers are plain numbers, in %.

Use these answered entries as a reference point.
| MOLECULE | UNIT SPEC | inhibition at 10 µM |
| --- | --- | --- |
| CC1(C)C(=O)Nc2c(OC(=O)c3cccc(OCc4ccc5ccccc5n4)c3)cccc21 [Example 61] | % | 27 |
| O=C1CSc2cc(NC(=O)c3ccc(OCc4ccc5ccccc5n4)cc3)ccc2N1 [Example 73] | % | 20 |
| O=C1CSc2cc(N=Cc3cccc(OCc4ccc5ccccc5n4)c3)ccc2N1 [Example 91] | % | 37 |

Exercise: Name the recorded inhibition at 10 µM of the molecule listed here: CCOCCn1c(COc2ccc(COc3ccc(C)c4c3C(C)(C)C(=O)N4)cc2)nc2ccccc21 [Example 45]
Key: 32

====

Target: H1 receptor (Cavia porcellus, UniProt P31389)
Construct: guinea pig cerebromembranous protein; from tissue; host or cells: guinea pig cerebral (brain) membranes
Experiment: H1 receptor binding inhibition test ([^3 H]mepyramin, guinea pig cerebromembranous protein)
Details: b: 10 μM; read-out: H1 receptor (%), inhibition rate
MEASUREMENT TYPE: inhibition at 10 µM (%)
Numbers only, in %.

| CPD SMILES | inhibition at 10 µM (%) |
| --- | --- |
| CN(Cc1cccc(OCc2ccc3ccccc3n2)c1)c1ccc2c(c1)SCC(=O)N2 | 4 |
| O=C1CSc2c(N=Cc3cccc(OCc4ccc5ccccc5n4)c3)cccc2N1 | 38 |

Exercise: Name the recorded inhibition at 10 µM of the molecule listed here: `O=C1CCCc2cc(OCc3cccc(OCc4ncc5ccccc5n4)c3)ccc21`
Key: 8

====

What pKd was measured for each of the following?
Target: LTD4 receptor (Cavia porcellus)
Construct: guinea pig pulmomembranous protein; from tissue; host or cells: guinea pig lung membranes
Sequence (Q2NNR5 1-340): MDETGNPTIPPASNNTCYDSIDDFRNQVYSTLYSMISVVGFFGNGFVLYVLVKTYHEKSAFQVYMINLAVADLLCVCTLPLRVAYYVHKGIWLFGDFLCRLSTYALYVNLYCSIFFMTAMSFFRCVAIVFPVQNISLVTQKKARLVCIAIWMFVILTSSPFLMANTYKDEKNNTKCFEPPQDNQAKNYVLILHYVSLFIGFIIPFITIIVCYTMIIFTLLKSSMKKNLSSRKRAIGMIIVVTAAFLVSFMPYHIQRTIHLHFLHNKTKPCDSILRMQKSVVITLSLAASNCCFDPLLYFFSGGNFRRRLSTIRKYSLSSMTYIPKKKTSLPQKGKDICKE
Assay: LTD4 receptor binding inhibition test ([^3 H]leukotriene D4, guinea pig pulmomembranous protein)
Settings: read-out: LTD4 receptor, dissociation constant KD
Answers are plain numbers, as −log10 of the molar value.

Use these answered entries as a reference point.
| COMPOUND | RECORDED RESULT |
| --- | --- |
| O=C1CS(=O)(=O)c2cc(OCc3cccc(OCc4nc5ccccc5s4)c3)ccc2N1 [Example 78] | 4.90 |
| Cc1ccc(OC(=O)c2cccc(OCc3ccc4ccccc4n3)c2)c2c1NC(=O)CC2 [Example 54] | 6.89 |
| CN(Cc1cccc(OCc2ccc3ccccc3n2)c1)c1ccc2c(c1)SCC(=O)N2C [96(b)] | 6.50 |
| Cn1c(COc2cccc(COc3ccc4c(c3)SCC(=O)N4)c2)nc2ccccc21 [Example 36] | 6.87 |

Parameter requested: pKd. Apply to each item below.
1. Cc1ccc(OCc2ccc(OCc3ccc4ccccc4n3)cc2)c2cc(C(=O)O)c(=O)[nH]c12 [Example 52]
2. O=C1CSc2c(N=Cc3cccc(OCc4ccc5ccccc5n4)c3)cccc2N1 [Example 93]
3. O=C1CCSc2cc(OCc3cccc(OCc4ccc5ccccc5n4)c3)ccc2N1 [Example 11]
4. O=C1CCc2cc(OCc3ccc(OCc4ccc5ccccc5n4)cc3)ccc2N1 [Example 22]
5. Cc1ccc(OC(=O)c2ccc(OCc3ccc4ccccc4n3)cc2)c2c1NC(=O)CC2 [Example 63]

Key:
1. 6.52
2. 5.82
3. 7.66
4. 5.91
5. 7.51

====

What inhibition at 100 µM was measured for each of the following?
Target: LTD4 receptor (Cavia porcellus, UniProt Q2NNR5)
Construct: guinea pig pulmomembranous protein; from tissue; host or cells: guinea pig lung membranes
Test: LTD4 receptor binding inhibition test ([^3 H]leukotriene D4, guinea pig pulmomembranous protein)
Conditions: a: 100 μM; read-out: LTD4 receptor (%), inhibition rate
Answers are plain numbers, in %.

Use these answered entries as a reference point.
| CPD SMILES | inhibition at 100 µM, % |
| --- | --- |
| O=C1CCS(=O)(=O)c2cc(OCc3cccc(OCc4ccc5ccccc5n4)c3)ccc2N1 | 0 |
| O=C1CCc2ccc(OC(=O)c3cccc(OCc4ccc5ccccc5n4)c3)cc2N1 | 12 |
| O=C1CSc2cc(OC(=O)c3cccc(OCc4ccc5ccccc5n4)c3)ccc2N1 | 0 |

Here's the next entry for you.
Exercise: Please look at `Cc1ccc(OCc2cccc(OCc3ccc4ccccc4n3)c2)c2cc(Cl)c(=O)[nH]c12` and tell me its recorded inhibition at 100 µM on LTD4 receptor (Cavia porcellus, UniProt Q2NNR5).
Key: 0

====

Target: LTD4 receptor (Cavia porcellus, UniProt Q2NNR5)
Construct: guinea pig pulmomembranous protein; from tissue; host or cells: guinea pig lung membranes
Experiment: LTD4 receptor binding inhibition test ([^3 H]leukotriene D4, guinea pig pulmomembranous protein)
Conditions: 0.2 nM [^3 H]leukotriene D4, pH 7.5, 22° C., 30 minutes; calculated from IC50; read-out: LTD4 receptor, dissociation constant KD
Experimental: 2) LTD4 Receptor Binding Inhibition Test An ice-cooled tris hydrochloride/sodium chloride buffer (10 mM/100 mM, pH 7.5) was added to terminate the reaction, followed by immediate filtration through a Wattman CF/C filter. The filter was washed twice with 20 ml aliguots of the ice-cooled buffer. The radioactivity of the residue was measured by a liquid scintillation counter. […] In a binding assay, 2 μM leukotriene D4 was used for the measurement of a nonspecific binding.
MEASUREMENT TYPE: Kd
Form entry: enter the amount, then its unit.

Exercise: Name the recorded Kd of the molecule listed here: CCOCCn1c(COc2ccc(COc3ccc4c(c3)SCC(=O)N4)cc2)nc2ccccc21 [Example 46]
Key: 6.4 µM

====

What inhibition at 10 µM was measured for each of the following?
Target: isolated guinea pig ileum (histamine) (Cavia porcellus)
Construct: An isolated guinea pig ileum was cut into about 2 cm lengths; from tissue; host or cells: isolated guinea pig ileum
Sequence (P31389 whole entry): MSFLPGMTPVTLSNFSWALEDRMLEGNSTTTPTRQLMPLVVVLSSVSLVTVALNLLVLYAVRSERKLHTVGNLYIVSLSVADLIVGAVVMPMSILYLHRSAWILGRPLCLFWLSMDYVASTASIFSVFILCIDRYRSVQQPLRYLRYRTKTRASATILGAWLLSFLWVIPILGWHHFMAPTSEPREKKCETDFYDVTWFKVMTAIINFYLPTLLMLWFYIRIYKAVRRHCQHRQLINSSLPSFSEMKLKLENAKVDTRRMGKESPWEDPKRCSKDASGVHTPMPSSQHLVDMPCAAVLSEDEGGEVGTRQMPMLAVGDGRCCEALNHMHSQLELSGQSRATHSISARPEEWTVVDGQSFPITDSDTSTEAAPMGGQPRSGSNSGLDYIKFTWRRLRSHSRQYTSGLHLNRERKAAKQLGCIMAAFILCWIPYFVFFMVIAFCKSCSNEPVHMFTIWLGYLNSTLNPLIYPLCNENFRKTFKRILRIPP
Experiment: Antihistaminic action (in vitro), inhibition of histamine-induced contraction of isolated ileum
Assay type: cell-based
Conditions: 10^-5 M, 30 minutes incubation, 37° C.; read-out: Antihistaminic (%), contraction inhibition rate
One number for each entry, in %.

| CPD SMILES | MEASUREMENT TYPE | RECORDED RESULT |
| --- | --- | --- |
| CN(Cc1cccc(OCc2ccc3ccccc3n2)c1)c1ccc2c(c1)SCC(=O)N2C | inhibition at 10 µM | 98 |
| Cc1ccc(OCc2ccc(OCc3nc4ccccc4n3C)cc2)c2c1NC(=O)C2(C)C | inhibition at 10 µM | 100 |
| CC1(C)C(=O)Nc2c(OCc3cccc(OCc4ccc5ccccc5n4)c3)cccc21 | inhibition at 10 µM | 100 |
| O=C1CCc2cc(OCc3cccc(OCc4ccc5ccccc5n4)c3)ccc2N1 | inhibition at 10 µM | 37 |
| O=C1CCc2ccc(OCc3ccc(OCc4ncc5ccccc5n4)cc3)cc2N1 | inhibition at 10 µM | 16 |

Here's the next entry for you.
Exercise: Name the recorded inhibition at 10 µM of the molecule listed here: `O=C1CSc2cc(OCc3cccc(OCc4ncc5ccccc5n4)c3)ccc2N1`
Key: 65

====

Biological target: LTD4 receptor (Cavia porcellus, UniProt Q2NNR5)
Construct: guinea pig pulmomembranous protein; from tissue; host or cells: guinea pig lung membranes
Sequence (Q2NNR5 1-340): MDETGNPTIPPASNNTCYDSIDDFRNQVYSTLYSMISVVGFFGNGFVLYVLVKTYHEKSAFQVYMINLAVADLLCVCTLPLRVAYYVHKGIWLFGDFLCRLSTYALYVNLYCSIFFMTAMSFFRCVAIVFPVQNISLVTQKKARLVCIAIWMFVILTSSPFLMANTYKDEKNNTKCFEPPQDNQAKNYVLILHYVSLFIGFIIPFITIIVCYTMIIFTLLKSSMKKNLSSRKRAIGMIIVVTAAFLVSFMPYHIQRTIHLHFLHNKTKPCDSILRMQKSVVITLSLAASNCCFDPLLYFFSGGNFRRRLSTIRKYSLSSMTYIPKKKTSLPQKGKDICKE
Test: LTD4 receptor binding inhibition test ([^3 H]leukotriene D4, guinea pig pulmomembranous protein)
Conditions: a: 100 μM; read-out: LTD4 receptor (%), inhibition rate
MEASUREMENT TYPE: inhibition at 100 µM

| COMPOUND | TARGET UNDER TEST | MEASUREMENT TYPE | RECORDED RESULT |
| --- | --- | --- | --- |
| Cc1ccc(OCc2ccc(OCc3ccc4ccccc4n3)cc2)c2cc(Cl)c(=O)[nH]c12 [Example 20] | LTD4 receptor (Cavia porcellus, UniProt Q2NNR5) | inhibition at 100 µM | 0% |
| Cc1ccc(OCc2ccc(OCc3ccc4ccccc4n3)cc2)c2cc(C#N)c(=O)[nH]c12 [Example 19] | LTD4 receptor (Cavia porcellus, UniProt Q2NNR5) | inhibition at 100 µM | 0% |
| CC1(C)C(=O)Nc2ccc(OC(=O)c3cccc(OCc4ccc5ccccc5n4)c3)cc21 [Example 59] | LTD4 receptor (Cavia porcellus, UniProt Q2NNR5) | inhibition at 100 µM | 53% |
| CC1(C)C(=O)Nc2ccc(OC(=O)c3ccc(OCc4ccc5ccccc5n4)cc3)cc21 [Example 67] | LTD4 receptor (Cavia porcellus, UniProt Q2NNR5) | inhibition at 100 µM | 52% |
| O=C1CSc2c(cccc2NC(=O)c2ccc(OCc3ccc4ccccc4n3)cc2)N1 [Example 71] | LTD4 receptor (Cavia porcellus, UniProt Q2NNR5) | inhibition at 100 µM | 0% |

Parameter requested: inhibition at 100 µM. Apply to each item below.
1. O=C1CCc2cc(OC(=O)c3ccc(OCc4ccc5ccccc5n4)cc3)ccc2N1 [Example 64]
2. O=C1CCc2ccc(OC(=O)c3ccc(OCc4ccc5ccccc5n4)cc3)cc2N1 [Example 65]

Key:
12%
13%
